- assay procedure: Substrate specificity of WNanoKAZ mutants, crude enzyme solution (Example 11)
- Format: biochemical
- test settings: substrate CTZ, Imax
- Procedure: DTT was added to the crude enzyme solution obtained in EXAMPLE 9 at a final concentration of 1 mM, and then allowed to stand in an ice-water bath over 8 hours or more. After 1 μL of the crude enzyme solution was added to 100 μL of 30 mM Tris-HCl (pH 7.6)-10 mM EDTA (Wako Pure Chemical Industries, Ltd.) containing 1 μg of coelenterazine (manufactured by JNC Corp.), a luminescence reaction was started. […] The maximum intensity of luminescence (Imax) was given as a relative luminescence activity (rlu). […]
recorded metric: Relative luminescence activity, CTZ, Imax

{"molecule": "WNanoKAZ-K124Q: single amino acid-substituted WNanoKAZ mutant K124Q; SEQ ID NO: 12 (protein) FTLADFVGDWQQTAGYNQDQVLEQGGLSSLFQALGVSVTPIQKVVLSGENGLKADIHVIIPYEGLSGFQMGLIEMIFKVVYPVDDHHFKVILHYGTLVIDGVTPNMIDYFGRPYEGIAVFDGKQITVTGTLWNGNKIIDERLINPDGSLLFRVTINGVTGWRLCERILA", "quantitative result": 34}
